B1: Lysozyme C, P61626 (parent)
chain: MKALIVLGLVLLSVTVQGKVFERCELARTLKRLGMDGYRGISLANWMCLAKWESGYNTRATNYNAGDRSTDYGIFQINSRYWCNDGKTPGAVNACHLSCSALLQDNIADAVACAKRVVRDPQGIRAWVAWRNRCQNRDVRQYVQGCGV

Variants of: B1
condition label: Homo sapiens; pH 2.7; Thermal; DSC; glycine-HCl 0.05 M; reversible: yes; structure 1LZ1; whole UniProt chain shown
measured quantity: heat capacity change of unfolding (kcal/mol/K)
Quick reminder: number only, in kcal/mol/K, skip the unit.

State its heat capacity change of unfolding: MKALIVLGLVLLSVTVQGKLFERCELARTLKRLGMDGYRGISLANWMCLAKWESGYNTRATNYNAGDRSTDYGIFQINSRYWCNDGKTPGAVNACHLSCSALLQDNIADAVACAKRVVRDPQGIRAWVAWRNRCQNRDVRQYVQGCGV [V20L]
1.22

State its heat capacity change of unfolding: MKALIVLGLVLLSVTVQGKVFERCELARTLKRLGMDGYRGISLANWMCLAKWESGYNTRATNYNAGDRSTDYGIFQINSRYWCNDGKTPGALNACHLSCSALLQDNIADAVACAKRVVRDPQGIRAWVAWRNRCQNRDVRQYVQGCGV [V92L]
1.27

State its heat capacity change of unfolding: MKALIVLGLVLLSVTVQGKVFERCELARTLKRLGMDGYRGISLANWMCLAKWESGYNTRATNYNAGDRSTDYGIFQINSRYWCNDGKTPGAINACHLSCSALLQDNIADAVACAKRVVRDPQGIRAWVAWRNRCQNRDVRQYVQGCGV [V92I]
1.2

State its heat capacity change of unfolding: MKALIVLGLVLLSVTVQGKVFERCELARTLKRLGMDGYRGISLANWMCLAKWESGYNTRATNYNAGDRSTDYGIFQINSRYWCNDGKTPGAFNACHLSCSALLQDNIADAVACAKRVVRDPQGIRAWVAWRNRCQNRDVRQYVQGCGV [V92F]
1.34

State its heat capacity change of unfolding: MKALIVLGLVLLSVTVQGKFFERCELARTLKRLGMDGYRGISLANWMCLAKWESGYNTRATNYNAGDRSTDYGIFQINSRYWCNDGKTPGAVNACHLSCSALLQDNIADAVACAKRVVRDPQGIRAWVAWRNRCQNRDVRQYVQGCGV [V20F]
1.63

State its heat capacity change of unfolding: MKALIVLGLVLLSVTVQGKGFERCELARTLKRLGMDGYRGISLANWMCLAKWESGYNTRATNYNAGDRSTDYGIFQINSRYWCNDGKTPGAVNACHLSCSALLQDNIADAVACAKRVVRDPQGIRAWVAWRNRCQNRDVRQYVQGCGV [V20G]
1.31

State its heat capacity change of unfolding: MKALIVLGLVLLSVTVQGKVFERCELARTLKRLGMDGYRGISLANWMCLAKWESGYNTRATNYNAGDRSTDYGIFQINSRYWCNDGKTPGAMNACHLSCSALLQDNIADAVACAKRVVRDPQGIRAWVAWRNRCQNRDVRQYVQGCGV [V92M]
1.58

State its heat capacity change of unfolding: MKALIVLGLVLLSVTVQGKIFERCELARTLKRLGMDGYRGISLANWMCLAKWESGYNTRATNYNAGDRSTDYGIFQINSRYWCNDGKTPGAVNACHLSCSALLQDNIADAVACAKRVVRDPQGIRAWVAWRNRCQNRDVRQYVQGCGV [V20I]
1.58

State its heat capacity change of unfolding: MKALIVLGLVLLSVTVQGKVFERCELARTLKRLGMDGYRGISLANWMCLAKWESGYNTRATNYNAGDRSTDYGIFQINSRYWCNDGKTPGAVNACHLSCSALLQDNIADAVACAKRVVRDPQGIRAWFAWRNRCQNRDVRQYVQGCGV [V128F]
1.7

State its heat capacity change of unfolding: MKALIVLGLVLLSVTVQGKVFERCELARTLKRLGMDGYRGISLANWMCLAKWESGYNTRATNYNAGDRSTDYGIFQINSRYWCNDGKTPGAVNACHLSCSALLQDNIADAVACAKRVVRDPQGIRAWLAWRNRCQNRDVRQYVQGCGV [V128L]
1.29

State its heat capacity change of unfolding: MKALIVLGLVLLSVTVQGKVFERCELARTLKRLGMDGYRGISLANWMCLAKWESGYNTRATNYNAGDRSTDYGIFQINSRYWCNDGKTPGAVNACHLSCSALLQDNIADAVACAKRVVRDPQGIRAWIAWRNRCQNRDVRQYVQGCGV [V128I]
1.65

State its heat capacity change of unfolding: MKALIVLGLVLLSVTVQGKMFERCELARTLKRLGMDGYRGISLANWMCLAKWESGYNTRATNYNAGDRSTDYGIFQINSRYWCNDGKTPGAVNACHLSCSALLQDNIADAVACAKRVVRDPQGIRAWVAWRNRCQNRDVRQYVQGCGV [V20M]
1.55

State its heat capacity change of unfolding: MKALIVLGLVLLSVTVQGKVFERCELARTLKRLGMDGYRGISLANWMCLAKWESGYNTRATNYNAGDRSTDYGIFQINSRYWCNDGKTPGAVNACHLSCSALLQDNIADAVACAKRVVRDPQGIRAWGAWRNRCQNRDVRQYVQGCGV [V128G]
1.82

State its heat capacity change of unfolding: MKALIVLGLVLLSVTVQGKVFERCELARTLKRLGMDGYRGISLANWMCLAKWESGYNTRATNYNAGDRSTDYGIFQINSRYWCNDGKTPGAVNACHLSCSALLQDNIADAVACAKRVVRDPQGIRAWMAWRNRCQNRDVRQYVQGCGV [V128M]
1.41
